# System Name: PTGER4 (EP4) (Homo sapiens)
# Sequence (P35408 whole entry): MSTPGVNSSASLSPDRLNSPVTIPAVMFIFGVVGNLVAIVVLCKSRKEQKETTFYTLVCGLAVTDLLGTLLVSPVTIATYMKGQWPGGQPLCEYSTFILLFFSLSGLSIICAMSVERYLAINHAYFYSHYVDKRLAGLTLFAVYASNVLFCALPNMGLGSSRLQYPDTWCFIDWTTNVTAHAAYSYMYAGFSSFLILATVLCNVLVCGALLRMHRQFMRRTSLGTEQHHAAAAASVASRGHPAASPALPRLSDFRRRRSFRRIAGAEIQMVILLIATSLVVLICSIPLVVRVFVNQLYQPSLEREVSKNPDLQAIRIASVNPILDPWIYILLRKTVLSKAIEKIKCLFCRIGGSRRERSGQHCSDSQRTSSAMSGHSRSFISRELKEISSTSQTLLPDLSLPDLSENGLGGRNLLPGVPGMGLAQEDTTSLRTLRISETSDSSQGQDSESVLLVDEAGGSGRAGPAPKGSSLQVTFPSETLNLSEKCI
# Test Details: hEP4 b-Arrestin Assay (PathHunter HEK 293 PTGER4 b-arrestin cells, PGE2 20 nM)
# Test Settings: antagonistic activity, beta-arrestin assay, HEK 293 PTGER4 cells, PGE2 20 nM (EC80); read-out: hEP4 b-arr IC50
pIC50: −log10 of the molar value.
Measured Metric: pIC50

Some solved entries appear below for comparison.
COc1ccc2ccc(F)c(CCNc3cc(-c4cc(C(F)(F)F)c(C(=O)O)s4)ncn3)c2n1 [Example 151]	6.32
CCOc1cc(-c2cc(NCCc3cc(F)cc4sccc34)ncn2)ccc1CC(=O)O [Example 165]	6.26
CCOc1cc(-c2cc(NCCc3c(F)ccc4ccccc34)ncn2)sc1C(=O)O [Example 95]	7.29

(P) CCOc1cc(-c2cc(NCCc3ccc(F)c4ccccc34)ncn2)sc1C(=O)O [Example 21]
(Q) CCOc1cc(-c2cc(NCCc3c(OC)ccc4ccccc34)ncn2)ccc1-c1noc(=S)[nH]1 [Example 189]
(R) CCOc1cc(-c2cc(NCCc3cccc4c(C)cccc34)ncn2)ccc1C(=O)O [Example 184]
(S) CCOc1cc(-c2cc(NCCc3cccc4c(C)cccc34)ncn2)ccc1CC(=O)O [Example 164]
Descending sort on pIC50 required. Returns: the labels listed in the requested order.
Q, P, S, R
